- test_system: T1, human CD30 (commercial, conjugated to digoxigenin) (human, UniProt P28908 19-379, limits assumed, conjugated to digoxigenin (DIG))
- T1 sequence (looked up): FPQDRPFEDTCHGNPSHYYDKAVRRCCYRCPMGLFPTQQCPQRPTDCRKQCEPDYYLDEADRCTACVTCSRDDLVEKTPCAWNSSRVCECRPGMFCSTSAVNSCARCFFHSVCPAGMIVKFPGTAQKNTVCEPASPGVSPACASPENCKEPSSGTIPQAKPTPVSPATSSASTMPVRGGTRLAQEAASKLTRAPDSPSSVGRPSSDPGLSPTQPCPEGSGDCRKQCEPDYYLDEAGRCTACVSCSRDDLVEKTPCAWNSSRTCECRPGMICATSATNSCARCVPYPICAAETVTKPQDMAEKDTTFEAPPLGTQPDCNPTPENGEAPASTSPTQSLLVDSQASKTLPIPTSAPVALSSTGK
- assay_name: AlphaScreen competition
Please go through the items and note down their Fold IC50 vs H3/L3.
Please format your answer as a value with the unit trailing.

Request the reported Fold IC50 vs H3/L3 associated with AC10 H3.30/L3 (antibody, IgG1, name in Kabat numbering, V domains shown) VH: QIQLVQSGPEVKKPGASVKVSCKASGYTFTDYYITWVRQAPGQGLEWMGWIYPGNGNTKYNEKFQGRFVFSVDTSASTAYLQISSLKAEDTAVYFCANYGNYWFAYWGQGTLVTVSS VL: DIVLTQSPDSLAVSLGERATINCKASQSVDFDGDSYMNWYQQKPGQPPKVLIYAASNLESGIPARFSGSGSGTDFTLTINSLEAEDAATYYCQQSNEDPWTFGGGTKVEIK
1.45 fold

So what does the record say about Fold IC50 vs H3/L3 for AC10 H3.33/L3 (antibody, IgG1, name in Kabat numbering, V domains shown) VH: QIQLVQSGPEVKKPGASVKVSCKASGYTFTDYYITWVRQAPGQGLEWMGWIYPGSGNTNYNEKFQGRFVFSVDTSASTAYLQISSLKAEDTAVYFCANYGNYWFAYWGQGTLVTVSS VL: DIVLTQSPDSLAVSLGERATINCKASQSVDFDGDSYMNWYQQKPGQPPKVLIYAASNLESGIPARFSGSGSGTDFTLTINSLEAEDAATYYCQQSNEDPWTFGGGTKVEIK ?
0.5 fold

Sample AC10 H3.53/L3 (antibody, IgG1, name in Kabat numbering, V domains shown) VH: QIQLVQSGPEVKKPGASVKVSCKASGYTFTDYYITWVRQAPGQGLEWMGWIYPGSGNTKYNEKFQGRFVFSVDTSASTAYLQISSLKAEDTAVYFCAKYGNYWFAYWGQGTLVTVSS VL: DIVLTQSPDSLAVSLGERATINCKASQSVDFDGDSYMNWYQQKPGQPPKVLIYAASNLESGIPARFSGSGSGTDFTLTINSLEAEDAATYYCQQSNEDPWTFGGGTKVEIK — what was its Fold IC50 vs H3/L3?
0.02 fold

Fill in: Fold IC50 vs H3/L3 of AC10 H3.59/L3 (antibody, IgG1, name in Kabat numbering, V domains shown) VH: QIQLVQSGPEVKKPGASVKVSCKASGYTFTDYYITWVRQAPGQGLEWMGWIYPGSGNTKYNEKFQGRFVFSVDTSASTAYLQISSLKAEDTAVYFCANYGNYWFAHWGQGTLVTVSS VL: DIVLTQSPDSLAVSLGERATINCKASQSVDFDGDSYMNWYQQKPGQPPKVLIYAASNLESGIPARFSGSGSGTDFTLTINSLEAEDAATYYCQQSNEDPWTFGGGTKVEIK is ___
1.05 fold

What value of Fold IC50 vs H3/L3 has been reported for the following binder? AC10 H3.55/L3 (antibody, IgG1, name in Kabat numbering, V domains shown) VH: QIQLVQSGPEVKKPGASVKVSCKASGYTFTDYYITWVRQAPGQGLEWMGWIYPGSGNTKYNEKFQGRFVFSVDTSASTAYLQISSLKAEDTAVYFCATYGNYWFAYWGQGTLVTVSS VL: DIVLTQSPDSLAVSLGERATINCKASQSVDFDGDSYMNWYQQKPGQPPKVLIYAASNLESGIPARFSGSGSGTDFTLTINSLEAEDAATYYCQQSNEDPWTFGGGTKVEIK
0.91 fold

Reference for the values: patent US7657380
